The measured values listed here are drawn from PubChem BioAssay AID449728.

Assay: bacterial viability reduction in E. coli – absorbance, OD600, counter-screen for AddAB inhibitor project, primary screen (AID 449728);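 further: uninfected addAB+ strain grown without phage in ampicillin broth; 0% = DMSO wells and 100% = ciprofloxacin 0.95 µg/ml wells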
Details: E. coli V3065 growth, 18 h, at 11.9 µM, active compounds read high
In all, about 330,000 compounds went through this assay and about 900 (0.27%) were called active. What follows is part of a selection rich in actives, with near analogues and random picks from the rest.
Reported inhibition is given for each of the following compounds.
Note: unit % is implicit; provide only the numeric part.

Below: 2 compounds and their reported inhibition.
compound: CC(=O)NC12CC3CC(C1)CC(C(=O)N1CCN(S(=O)(=O)c4cccs4)CC1)(C3)C2
readout_name: inhibition
meas_value: -1.77
//
compound: O=C(Nc1ccccc1F)C1C2C=CC3(O2)C1C(=O)N(c1cccnc1)C3C(=O)NC1CCCCC1 (stereo not given)
readout_name: inhibition
meas_value: -0.09

Task item: Given the entry O=C(Nc1ccc(Br)cn1)c1ccc([N+](=O)[O-])cc1Cl , report its measured inhibition.
Reply: 2.77

Task item: Also, O=C(NCc1ccccn1)Nc1ccc(Cl)cc1 please.
Reply: -3.41

Task item: Query Cc1cccc(NC(=O)c2ccc([N+](=O)[O-])o2)c1 next
Reply: 27.2
